# Assay notes: chemical genetic growth profiling, strain panel (AID 1159580);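 further: tested at 20 µM; growth read once vehicle control cultures reached saturation at 30 °C; 1 = growth at the plate median or of vehicle wells; lower values mean less growth of the strain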
# Protocol conditions: S. cerevisiae deletion strains, growth OD, locus YJL166W, strain qcr8, hits give low values
The campaign covered roughly 5,500 compounds. About 2,000 (36%) were called active. Another 18% or so got no clear call; they are omitted. Some of the results follow.
Assay metric: normalized growth

Example entries begin here.
{"Molecule": "Fc1ccc([C@@H]2CCNC[C@H]2COc2ccc3c(c2)OCO3)cc1", "normalized growth": "1.03 (inactive)"}
{"Molecule": "O=C(O)C1CCCNC1 (stereo not given)", "normalized growth": "1.01 (inactive)"}
{"Molecule": "CC(=O)C1CCC2C3CCC4C[C@H](O)CCC4(C)C3C[C@H](O)C12C (stereo not given in full)", "normalized growth": "0.975 (inactive)"}
{"Molecule": "COc1ccc(CCC(=O)c2c(O)cc(O[C@@H]3O[C@H](CO)C(O)[C@H](O)C3O[C@@H]3O[C@@H](C)[C@H](O)[C@@H](O)[C@H]3O)cc2O)cc1O (stereo not given in full)", "normalized growth": "1.02 (inactive)"}

According to the records, this molecule O=C(O)COc1ccc(Cl)cc1Cl displays normalized growth of 0.992 (inactive)

* * *

# Assay notes: chemical genetic growth profiling, strain panel (AID 1159580);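 further: tested at 20 µM; growth read once vehicle control cultures reached saturation at 30 °C; 1 = growth at the plate median or of vehicle wells; lower values mean less growth of the strain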
# Protocol conditions: S. cerevisiae deletion strains, growth OD, locus YLR371W, strain rom2, hits give low values
Out of some 5,500 compounds screened, about 2,000 (36%) were called active. Roughly 18% stayed inconclusive and do not appear here. The list shows a part of the results.
normalized growth overview
Answer with the value's number alone.

{"Molecule": "COC(=O)/C(C)=C\\CC12OC(C)(C)C3CC(C=C4C(=O)c5c(OC)c6c(c(CC=C(C)C)c5OC431)OC(C)(CCC=C(C)C)C=C6)C2=O (centres undefined)", "normalized growth": 1.02}
{"Molecule": "COc1ccc2oc3ccccc3c(=O)c2c1", "normalized growth": 0.7}
{"Molecule": "C[C@]12CCC3C(CC[C@H]4C[C@H](O)CC[C@]34C)C1CC[C@@H]2O (some centres undefined)", "normalized growth": 1.05}
{"Molecule": "C[C@]12CCC3c4ccc(OC(=O)CCC(=O)O)cc4CCC3C1CCC2=O (some centres undefined)", "normalized growth": 0.97}
{"Molecule": "C[C@]12CCC3c4ccc(OC(=O)c5ccccc5)cc4CCC3C1CCC2=O (some centres undefined)", "normalized growth": 1}

According to the records, this molecule CCN1C[C@@]2(COC)C3[C@@H](OC)[C@H]4[C@@H]1[C@]3(C(OC)C[C@H]2O)C1C[C@@]2(O)[C@H](OC(=O)c3ccccc3)C1[C@]4(OC(C)=O)[C@@H](O)[C@@H]2OC (some centres undefined) displays normalized growth of 1.02

According to the records, this molecule Cc1onc(-c2ccccc2)c1-c1ccc(S(N)(=O)=O)cc1 displays normalized growth of 0.998

According to the records, this molecule CC(=O)N[C@@H](CCC(=O)O)C(=O)O displays normalized growth of 1

According to the records, this molecule CC12CCC3C(=CCc4cc(O)ccc43)C1CCC2=O (centres undefined) displays normalized growth of 0.986

According to the records, this molecule CN[C@@H]1C(OC2[C@H](O[C@H]3[C@H](O)[C@@H](O)[C@H](N=C(N)N)[C@@H](O)[C@@H]3N=C(N)N)OC(C)[C@]2(O)CO)OC(CO)C(O)C1O (some centres undefined) displays normalized growth of 0.973

According to the records, this molecule CC(=O)C1CCC2C3CCC4C[C@H](O)CCC4(C)C3C[C@H](O)C12C (some centres undefined) displays normalized growth of 1.02

According to the records, this molecule Cc1oncc1C(=O)Nc1ccc(C(F)(F)F)cc1 displays normalized growth of 0.982

According to the records, this molecule Clc1ccc(COC(Cn2ccnc2)c2ccc(Cl)cc2Cl)c(Cl)c1 (centres undefined) displays normalized growth of 0.0643

According to the records, this molecule COC(=O)[C@@H]1OC(=O)C2OC23[C@@]1(C)CCC1[C@]2(C)C(C[C@@H](O)[C@]13C)C(C)(C)[C@H](OC(C)=O)C[C@@H]2OC(C)=O (some centres undefined) displays normalized growth of 0.988

According to the records, this molecule Clc1ccc(COC(Cn2ccnc2)c2ccc(Cl)cc2Cl)cc1 (centres undefined) displays normalized growth of 0.0612

According to the records, this molecule O=c1cccc2n1CC1CC2CN2CCCC[C@@H]12 (some centres undefined) displays normalized growth of 0.977

According to the records, this molecule CC(=O)OCC(=O)[C@@]1(O)CCC2C3CCC4=CC(=O)C=CC4(C)C3[C@@H](O)C[C@@]21C (some centres undefined) displays normalized growth of 1.02

According to the records, this molecule CC(C)=CC1C(C(=O)OCc2cccc(Oc3ccccc3)c2)C1(C)C (centres undefined) displays normalized growth of 0.972

According to the records, this molecule CN1CCC[C@@H]1CCO[C@](C)(c1ccccc1)c1ccc(Cl)cc1 displays normalized growth of 0.994
